A compilation of published IC50 results with Galectin-3 (Homo sapiens).
Property Label: IC50 (nM)

{"Molecule": "CO[C@@H]1[C@@H](n2cc(-c3ccc(F)c(F)c3F)nn2)[C@@H](O)[C@@H](CO)O[C@H]1C(=O)N(c1cc(Br)cc(C#N)c1)[C@H]1CCC[C@@H]1O", "Value Units": "nM", "IC50": 28.7}
{"Molecule": "[2H]C([2H])([2H])OC1C(n2cc(-c3cc(F)c(F)c(F)c3)nn2)[C@@H](O)C(CO)O[C@H]1[C@H](OCc1ccc(Br)cc1)C(=O)NC1CCC1 (stereo partly drawn)", "Value Units": "nM", "IC50": 153}
{"Molecule": "CO[C@@H]1[C@@H](n2cc(-c3cc(F)c(F)c(F)c3)nn2)[C@@H](O)[C@@H](CO)O[C@@H]1C[C@H]1CC([C@H]2CNC(=O)C2)=NO1", "Value Units": "nM", "IC50": 550}

[a] CO[C@@H]1[C@@H](n2cc(-c3cc(F)c(F)c(F)c3)nn2)[C@@H](O)[C@@H](CO)O[C@@H]1Cc1cc(C2CCC(F)(F)CC2)on1
[b] COC(=O)[C@@H](OCc1ccccc1)[C@@H]1OC(CO)[C@H](O)C(n2cc(-c3cc(F)c(F)c(F)c3)nn2)C1O (stereo partly drawn)
input: Pick one: a or b . Which one has the lower reported IC50? Bench note: the answer is the label of the chosen record.
output: a

====

For reference, the following IC50 results for Galectin-3 (Homo sapiens) were taken from various sources.
Property Label: IC50 (nM)

Some solved cases for reference:
{"Compound": "CO[C@@H]1[C@@H](n2cc(-c3ccc(Cl)c(Cl)c3)nn2)[C@@H](O)[C@@H](CO)O[C@H]1C(=O)N(c1cc(Cl)cc(C#N)c1)[C@H]1CC[C@@H]1O", "Recorded Measurement": 131}
{"Compound": "CO[C@@H]1[C@@H](n2cc(-c3cc(F)c(F)c(F)c3)nn2)[C@@H](O)[C@@H](CO)O[C@@H]1Cc1cc(C2(O)CCN(C(=O)OC(C)(C)C)CC2)on1", "Recorded Measurement": 69}

[I] CC(C)(O)CC1CC(C[C@H]2O[C@H](CO)[C@H](O)[C@H](n3cc(-c4cc(F)c(F)c(F)c4)nn3)[C@H]2O)=NO1 (some centres unmarked)
[II] CO[C@@H]1[C@@H](n2cc(-c3ccc(C)c(F)c3F)nn2)[C@@H](O)[C@@H](CO)O[C@@H]1CN1C=NC2(CCCCC2)C1
[III] CO[C@@H]1[C@@H](n2cc(-c3cc(F)cc(Cl)c3)nn2)[C@@H](O)[C@@H](CO)O[C@H]1C(=O)N(c1cc(F)cc(Br)c1)[C@H]1CCCC[C@@H]1O
input: Arrange the 3 entries by IC50 so the values rise. Answer format: list of labels, ordered as asked.
output: III, II, I

[1] COc1cc(C#N)cc(N(C(=O)[C@@H]2O[C@H](CO)[C@H](O)[C@H](n3cc(-c4ccc(C#N)c(F)c4)nn3)[C@H]2OC)[C@H]2CCCC[C@@H]2O)c1
[2] CO[C@@H]1[C@@H](n2cc(-c3cc(F)c(F)c(F)c3)nn2)[C@@H](O)[C@@H](CO)O[C@H]1C(=O)N(c1cc(Cl)cc(C#N)c1)[C@H]1CCCC[C@@H]1O
input: Name the one with the greater IC50 value, either 1 or 2 as given. Which one? Tell me its label.
output: 1
(1: 87 nM, 2: 13 nM)

[1] CO[C@@H]1[C@@H](n2cc(-c3cccc(F)c3)nn2)[C@@H](O)[C@@H](CO)O[C@H]1C(=O)N(c1cc(Br)cc(C#N)c1)[C@H]1CCC[C@@H]1O
[2] CO[C@@H]1[C@@H](n2cc(-c3cc(F)c(F)c(F)c3)nn2)[C@@H](O)[C@@H](CO)O[C@@H]1C[C@H]1CN(C2CCN(C(C)=O)CC2)C(=O)O1
input: Pick one: 1 or 2 . Which one has the lower reported IC50? Please reply using the label of the selected record.
output: 1
(1: 66 nM, 2: 96 nM)

[I] CO[C@@H]1[C@@H](n2cc(-c3ccc(Cl)c(F)c3F)nn2)[C@@H](O)[C@@H](CO)O[C@@H]1Cc1cc(C2(C)CCOCC2)no1
[II] CO[C@@H]1[C@@H](n2cc(-c3ccc(C)c(F)c3F)nn2)[C@@H](O)[C@@H](CO)O[C@@H]1Cc1cc(C2(C)CCOCC2)no1
input: Which value of IC50 is smaller, the one for I or the one for II ? Selection: enter the item's label.
output: I

[I] CO[C@@H]1[C@@H](n2cc(-c3cccc(F)c3F)nn2)[C@@H](O)[C@@H](CO)O[C@@H]1CC1CC(C2CCN(C(=O)OC(C)(C)C)CC2)=NO1 (some centres unmarked)
[II] O=C([C@@H]1O[C@H](CO)[C@H](O)[C@H](n2cc(-c3cc(F)c(F)c(F)c3)nn2)[C@H]1O)N(Cc1cnccc1C(F)(F)F)[C@H]1CCCC[C@@H]1O
input: Of I and II , which one carries the higher reported IC50? Field: selected label. Fill in the label of the entry you choose.
output: II
(II: 122 nM, I: 69 nM)

====

pIC50: −log10 of the molar value.
Record set: pIC50 | Galectin-3 (Homo sapiens) | literature, multiple sources.
Property Label: pIC50

In the examples that follow, each entry is paired with its recorded pIC50.
{"Input Smiles": "CC(=O)O[C@@H]1[C@@H](n2cc(-c3cc(F)c(Cl)c(F)c3)nn2)[C@@H](O)[C@@H](CO)O[C@H]1C(=O)N(c1cc(Cl)cc(C#N)c1)[C@H]1CCC[C@@H]1O", "pIC50": 7.79}
{"Input Smiles": "CO[C@@H]1[C@@H](n2cc(-c3cc(F)c(F)c(F)c3)nn2)[C@@H](O)[C@@H](CO)O[C@@H]1Cc1cc(C(C)(C)N)no1", "pIC50": 6.74}

[P] CO[C@@H]1[C@@H](n2cc(-c3ccc(C)c(F)c3)nn2)[C@@H](O)[C@@H](CO)O[C@@H]1Cc1cc(C(C)(C)C)on1
[Q] CO[C@@H]1[C@@H](n2cc(-c3ccc(Cl)c(F)c3F)nn2)[C@@H](O)[C@@H](CO)O[C@@H]1CC1=NOC2(C1)CN(C(=O)OC(C)(C)C)C2
input: When their pIC50 values are compared, which is larger, P or Q ? Give the chosen item's label as your response.
output: P

====

// note: pIC50 values for Galectin-3 (Homo sapiens, UniProt P17931) were reported in different studies
pIC50: −log10 of the molar value.
Property Label: pIC50

{"Compound": "CO[C@@H]1[C@@H](n2cc(-c3cc(F)c(F)c(F)c3)nn2)[C@@H](O)[C@@H](CO)O[C@@H]1CC1CN(C2CCCCC2)C(=O)O1 (mixture of isomers)", "pIC50": 6.85}
{"Compound": "OC[C@H]1O[C@H](Cc2cc(C3CC3)on2)[C@H](O)[C@@H](n2cc(-c3cc(F)c(F)c(F)c3)nn2)[C@H]1O", "pIC50": 6.30}
{"Compound": "CO[C@@H]1[C@@H](n2cc(-c3ccc(C#N)c(F)c3F)nn2)[C@@H](O)[C@@H](CO)O[C@@H]1Cc1cc(C(C)(C)C)on1", "pIC50": 6.80}
{"Compound": "CNC(=O)CO[C@@H]1[C@@H](n2cc(-c3cc(F)c(F)c(F)c3)nn2)[C@@H](O)[C@@H](CO)O[C@@H]1Cc1cc(C(C)(C)C)on1", "pIC50": 6.72}
{"Compound": "CO[C@@H]1[C@@H](n2cc(-c3cc(F)c(Cl)c(F)c3)nn2)[C@@H](O)[C@@H](CO)O[C@@H]1Cc1cc(C2CCOCC2)on1", "pIC50": 6.72}
{"Compound": "CO[C@@H]1[C@@H](n2cc(-c3cc(F)c(Cl)c(F)c3)nn2)[C@@H](O)[C@@H](CO)O[C@H]1C(=O)N(c1cc(Cl)cc(C#N)c1)[C@H]1CCC[C@@H]1O", "pIC50": 7.44}
{"Compound": "Cc1ccc(-c2cn([C@H]3[C@@H](O)[C@@H](CO)O[C@H](CC4=NOC5(CCCCC5)C4)[C@@H]3OCC(=O)O)nn2)c(F)c1F", "pIC50": 7.43}
{"Compound": "OC[C@H]1O[C@H](CC2=NOC(C3CCNCC3)C2)[C@H](O)[C@@H](n2cc(-c3cc(F)c(F)c(F)c3)nn2)[C@H]1O (mixture of isomers)", "pIC50": 6.08}
{"Compound": "CO[C@@H]1[C@@H](n2cc(-c3ccc(Cl)c(F)c3F)nn2)[C@@H](O)[C@@H](CO)O[C@@H]1Cc1cc(C(C)(C)O)on1", "pIC50": 7.17}
{"Compound": "CC(=O)O[C@@H]1[C@@H](n2cc(-c3cc(F)c(C)c(F)c3)nn2)[C@@H](O)[C@@H](CO)O[C@H]1C(=O)N(Cc1ccnn1C)[C@H]1CCCC[C@@H]1O", "pIC50": 7.24}

[I] CC(=O)O[C@@H]1[C@@H](n2cc(-c3cc(F)c(C)c(F)c3)nn2)[C@@H](O)[C@@H](CO)O[C@H]1C(=O)N(c1cc(Cl)cc(C#N)c1)[C@H]1CCC[C@@H]1O
[II] CO[C@@H]1[C@@H](n2cc(-c3cc(F)c(F)c(F)c3)nn2)[C@@H](O)[C@@H](CO)O[C@@H]1Cc1cc(C2CCNC2)on1 (mixture of isomers)
input: When the recorded pIC50 values are compared, which is smaller: that of I or that of II ? Refer to your chosen entry by its label in the reply.
output: II
(II: 6.19, I: 7.57)
